molecular target: UniProt P00749; experiment: Relative binding affinity for urokinase-type plasminogen activator
Labelling field: enter fulfilled if recorded Selectivity is less than 6. Enter not fulfilled if it equals or exceeds that cut-off.

* N=C(N)c1ccc2[nH]c(-c3cc(C(=O)O)cc(-c4cccc([N+](=O)[O-])c4)c3O)cc2c1 | not fulfilled
* N=C(N)c1ccc2[nH]c(-c3cc(CC(=O)O)cc(-c4ccccc4)c3O)cc2c1 | fulfilled
* N=C(N)c1ccc2[nH]c(-c3cc(CC(=O)O)cc(-c4cccc([N+](=O)[O-])c4)c3O)cc2c1 | not fulfilled
* N=C(N)c1ccc2[nH]c(-c3cc(CC(N)C(=O)O)cc(-c4cccc([N+](=O)[O-])c4)c3O)cc2c1 (stereo not drawn) | fulfilled
* N=C(N)c1cccc(-c2cc(CC(=O)O)cc(-c3cc4cc(C(=N)N)ccc4[nH]3)c2O)c1 | fulfilled
* N=C(N)c1ccc2[nH]c(-c3cc(CCOP(=O)(O)O)cc(-c4cccc([N+](=O)[O-])c4)c3O)cc2c1 | not fulfilled
* N=C(N)c1ccc2[nH]c(-c3cc(CC(=O)O)cc(-c4cccc(-c5nn[nH]n5)c4)c3O)cc2c1 | fulfilled
* N=C(N)c1ccc2[nH]c(-c3cc(CC(=O)O)cc(-c4cccc(OP(=O)(O)O)c4)c3O)cc2c1 | fulfilled
* N=C(N)c1ccc2[nH]c(-c3cc(-c4nn[nH]n4)cc(-c4cccc([N+](=O)[O-])c4)c3O)cc2c1 | not fulfilled
* N=C(N)c1ccc2[nH]c(-c3cc(CC(=O)O)cc(-c4cccc(Cl)c4)c3O)cc2c1 | fulfilled
